Target Of Assay: VEGFR2 (purified cytoplasmic domain KDR protein) (Homo sapiens (Human), UniProt P35968)
Sequence (P35968 786-1356): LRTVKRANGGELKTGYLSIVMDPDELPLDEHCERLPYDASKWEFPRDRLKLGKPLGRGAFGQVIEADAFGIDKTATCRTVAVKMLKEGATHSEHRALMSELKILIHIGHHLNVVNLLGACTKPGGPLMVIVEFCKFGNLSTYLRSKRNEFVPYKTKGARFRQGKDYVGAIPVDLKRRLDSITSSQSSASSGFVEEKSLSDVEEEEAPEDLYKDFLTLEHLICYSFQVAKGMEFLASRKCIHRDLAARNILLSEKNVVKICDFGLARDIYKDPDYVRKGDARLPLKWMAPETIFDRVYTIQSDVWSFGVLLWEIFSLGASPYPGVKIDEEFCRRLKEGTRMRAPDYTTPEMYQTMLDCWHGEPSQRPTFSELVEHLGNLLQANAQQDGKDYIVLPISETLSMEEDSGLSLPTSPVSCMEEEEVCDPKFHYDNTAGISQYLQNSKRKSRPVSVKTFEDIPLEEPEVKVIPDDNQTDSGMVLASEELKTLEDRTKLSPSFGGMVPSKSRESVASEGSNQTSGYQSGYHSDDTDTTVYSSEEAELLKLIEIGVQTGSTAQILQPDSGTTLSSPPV
Measurement Notes: VEGFR2 Kinase Assay (biochemical KDR kinase assay, ELISA readout)
Measurement Parameters: 2.7 μM ATP, poly-Glu-Tyr (4:1) substrate, 15 minute incubation at 30° C.
Property: IC50 (nM)
Supply the numeric figure in nM, leaving out any unit text.

Exam item: Lab note: need IC50 with VEGFR2 (purified cytoplasmic domain KDR protein) (Homo sapiens (Human), UniProt P35968) for entry COc1ccc(/C(=C/C(N)=O)c2ccc(NC(=O)Nc3cc(C(F)(F)F)ccc3F)cc2)cc1 , please look it up.
Marked response: 457

Exam item: Lab note: need IC50 with VEGFR2 (purified cytoplasmic domain KDR protein) (Homo sapiens (Human), UniProt P35968) for entry COc1cccc(/C(=C/C(N)=O)c2ccc(NC(=O)Nc3cc(C(F)(F)F)ccc3F)cc2)c1 , please look it up.
Marked response: 945

Exam item: Lab note: need IC50 with VEGFR2 (purified cytoplasmic domain KDR protein) (Homo sapiens (Human), UniProt P35968) for entry NC(=O)/C=C(/c1ccccc1)c1ccc(NC(=O)Nc2cc(C(F)(F)F)ccc2F)cc1 , please look it up.
Marked response: 626

Exam item: Lab note: need IC50 with VEGFR2 (purified cytoplasmic domain KDR protein) (Homo sapiens (Human), UniProt P35968) for entry NC(=O)/C=C\c1ccc(NC(=O)Nc2cc(C(F)(F)F)ccc2F)cc1 , please look it up.
Marked response: 2790
